Attribute: pKi
Target: STAT5a (Homo sapiens, UniProt P42229)
Sequence (P42229 1-794): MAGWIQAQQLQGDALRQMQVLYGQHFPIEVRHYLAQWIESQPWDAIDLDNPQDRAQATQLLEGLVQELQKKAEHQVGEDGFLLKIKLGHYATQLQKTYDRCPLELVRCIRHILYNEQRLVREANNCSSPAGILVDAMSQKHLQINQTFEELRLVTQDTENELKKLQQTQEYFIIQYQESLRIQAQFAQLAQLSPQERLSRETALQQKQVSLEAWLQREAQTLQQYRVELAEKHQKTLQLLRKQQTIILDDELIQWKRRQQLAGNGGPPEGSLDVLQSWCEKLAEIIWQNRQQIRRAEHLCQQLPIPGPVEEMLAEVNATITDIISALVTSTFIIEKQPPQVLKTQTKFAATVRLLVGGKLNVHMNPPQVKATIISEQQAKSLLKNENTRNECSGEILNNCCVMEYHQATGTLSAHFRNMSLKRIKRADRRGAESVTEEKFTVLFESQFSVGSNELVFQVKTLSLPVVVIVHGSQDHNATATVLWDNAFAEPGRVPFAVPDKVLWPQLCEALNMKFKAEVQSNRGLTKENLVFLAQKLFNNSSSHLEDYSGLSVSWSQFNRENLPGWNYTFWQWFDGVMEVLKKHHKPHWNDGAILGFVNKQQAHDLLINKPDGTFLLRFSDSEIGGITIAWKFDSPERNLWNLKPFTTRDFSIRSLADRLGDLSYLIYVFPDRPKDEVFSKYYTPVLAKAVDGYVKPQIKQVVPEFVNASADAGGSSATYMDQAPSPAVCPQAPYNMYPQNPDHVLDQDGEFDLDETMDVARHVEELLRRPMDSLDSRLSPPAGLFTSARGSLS
Would you please state pKi, meaning minus log10 of the concentration in mol/L, as a bare number?

As a guide, the following entries are already answered.
compound: O=P(O)(O)Oc1cccc(OP(=O)(O)O)c1F
measured target: STAT5a (Homo sapiens, UniProt P42229)
pKi: 4.97

compound: CC(=O)NCc1cc(OP(=O)(O)O)cc(OP(=O)(O)O)c1
measured target: STAT5a (Homo sapiens, UniProt P42229)
pKi: 4.44

compound: O=C(CNc1ccc(C(=O)Nc2ccc(Oc3ccccc3)cc2)cc1)NCc1cc(OP(=O)(O)O)cc(OP(=O)(O)O)c1
measured target: STAT5a (Homo sapiens, UniProt P42229)
pKi: 5.51

Req: Which pKi reading was recorded for the compound O=P(O)(O)Oc1cccc(OP(=O)(O)O)c1 [compound 1, 1,3-Phenylene bis(dihydrogen phosphate)] ?
Resp: 4.63

Req: Also, "O=P(O)(O)Oc1ccc(F)c(OP(=O)(O)O)c1" please.
Resp: 4.53

Req: Then this compound: "O=C(COc1ccc(C(=O)Nc2ccc(Oc3ccccc3)cc2)cc1)NCc1cc(OP(=O)(O)O)cc(OP(=O)(O)O)c1"
Resp: 5.60

* * *

Target: STAT4 (Homo sapiens)
Sequence (Q14765 1-748): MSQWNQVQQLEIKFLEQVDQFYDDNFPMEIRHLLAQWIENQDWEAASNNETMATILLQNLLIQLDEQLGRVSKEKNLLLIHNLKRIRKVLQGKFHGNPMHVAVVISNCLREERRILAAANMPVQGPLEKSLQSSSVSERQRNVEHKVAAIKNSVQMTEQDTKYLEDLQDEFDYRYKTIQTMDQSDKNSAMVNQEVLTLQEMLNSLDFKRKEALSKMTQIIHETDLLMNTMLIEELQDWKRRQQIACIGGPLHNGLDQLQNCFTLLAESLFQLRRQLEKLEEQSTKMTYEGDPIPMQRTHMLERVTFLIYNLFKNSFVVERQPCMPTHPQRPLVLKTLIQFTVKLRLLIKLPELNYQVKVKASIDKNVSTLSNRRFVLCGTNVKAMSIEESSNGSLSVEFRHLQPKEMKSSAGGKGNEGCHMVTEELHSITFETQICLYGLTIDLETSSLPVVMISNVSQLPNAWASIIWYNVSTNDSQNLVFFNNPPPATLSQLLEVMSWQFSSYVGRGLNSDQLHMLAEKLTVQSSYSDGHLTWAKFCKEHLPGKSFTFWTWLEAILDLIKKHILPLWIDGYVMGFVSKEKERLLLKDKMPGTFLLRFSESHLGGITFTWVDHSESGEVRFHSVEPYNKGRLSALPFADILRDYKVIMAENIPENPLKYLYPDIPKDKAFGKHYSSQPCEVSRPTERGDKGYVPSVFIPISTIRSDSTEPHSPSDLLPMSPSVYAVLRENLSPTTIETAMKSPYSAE
measured parameter: IC50 (µM)
Use µM as the unit, but write only the number.

Req: Could you share which IC50 value was measured for "O=C(CNc1ccc(C(=O)Nc2ccc(Oc3ccccc3)cc2)cc1)NCc1cc(OP(=O)(O)O)cc(OP(=O)(O)O)c1" ?
Resp: 11.3
